Target sequence: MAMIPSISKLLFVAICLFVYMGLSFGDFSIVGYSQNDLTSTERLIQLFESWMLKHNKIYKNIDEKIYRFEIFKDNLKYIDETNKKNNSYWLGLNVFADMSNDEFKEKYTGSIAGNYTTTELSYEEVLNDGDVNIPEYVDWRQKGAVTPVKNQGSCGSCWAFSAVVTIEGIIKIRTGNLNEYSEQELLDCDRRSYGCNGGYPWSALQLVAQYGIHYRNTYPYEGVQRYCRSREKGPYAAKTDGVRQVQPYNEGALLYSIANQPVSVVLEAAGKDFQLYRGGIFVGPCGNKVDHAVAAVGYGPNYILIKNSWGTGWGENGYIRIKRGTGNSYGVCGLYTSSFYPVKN
Metric: Ki (µM)

smiles_str=COC(=O)[C@H](C)NC(=O)[C@H](C)NC(=O)C[C@H]1O[C@H]1CNC(=O)[C@H](Cc1ccccc1)NC(=O)OCc1ccccc1 numeric_result=18

====

Dear all, this message contains Ki results, target or system UniProt:P07858.
Metric: Ki

compound="O=C(N[C@@H](Cc1ccccc1)C(=O)NCC1CO1)OCc1ccccc1 (some centres not stated)" metric=Ki result="1020 µM"
compound=COC(=O)[C@H](C)NC(=O)[C@H](C)NC(=O)C[C@H]1O[C@H]1CNC(=O)[C@H](Cc1ccccc1)NC(=O)OCc1ccccc1 metric=Ki result="94 µM"

Value source: ChEMBL document CHEMBL1141714
